- System: MDA-MB-468 breast
- method: NCI-60 one-dose screen, 48 h (100 = growth as untreated, 0 = no growth, -100 = all killed)
- condition-parameters: 10 µM unless noted
The panel holds about 83,000 compounds, 20% with a hit somewhere; the sample as a whole holds those more often.
Reported growth values follow for various molecules
Report the figure in % without appending any unit label.

* C[C@H]1[C@H]2[C@H]3CC[C@@H]4[C@@]5(C)CC[C@H](O)C(C)(C)[C@@H]5CC[C@@]4(C)[C@]3(C)CC[C@]23CO[C@]1(C)[C@@H](C(=O)/C=C\c1ccco1)C3 | 19.3

Task: growth lookup needed for COc1cc(-c2cnc3nonc3n2)c(OC)c2c1OCO2 , thanks.
Result: 83.5

Task: growth lookup needed for O=C1c2cc(Br)ccc2Oc2cc([N+](=O)[O-])ccc2N1c1ccc(I)cc1F , thanks.
Result: 105

Task: growth lookup needed for COc1ccc(NC(=O)c2sc3nc(C)c(C(O)c4ccc(OC)cc4)cc3c2N)cc1 (stereo not given) , thanks.
Result: 24.8

Task: growth lookup needed for O=C(N/N=C\c1ccccc1O)C1CC1 , thanks.
Result: 102

Task: growth lookup needed for CN1CCN(CCOc2ccc(-c3cnc4c(-c5cccc(F)c5F)cnn4c3)cc2)CC1 , thanks.
Result: 94.8

Task: growth lookup needed for CN(C)c1ccc(/C=C2\C=C(c3nc4ccccc4s3)OC2=O)cc1 , thanks.
Result: 79.8

* * *

Reported growth values follow for various compounds
- Tested on: MDA-MB-468 breast
- method: NCI-60 one-dose screen, 48 h (100 = growth as untreated, 0 = no growth, -100 = all killed)
- condition-parameters: 10 µM unless noted
About 83,000 compounds went through this panel and 20% of them were active in at least one assay; those are over-represented in the sample as a whole.
Report the figure in % without appending any unit label.

* CC(C)=CCC[C@](C)(O)[C@H]1CC[C@]2(C)[C@@H]1CC[C@@H]1[C@@]3(C)CC[C@H](N)C(C)(C)[C@@H]3CC[C@]12C | 62
* CCOc1ccc2nc(-c3cccc(OCC(=O)NC(C)C)c3)nc(Nc3ccc(-c4cn[nH]c4)cc3)c2c1 | 21
* C=CC[C@]1(O)CC[C@H]2[C@@H]3CCc4cc(O)ccc4[C@H]3CC[C@@]21C | 87.4
* COc1cc2nc(-c3ccc(C)cc3)cc(OCCCNCC3CCCO3)c2cc1OC (centres undefined) | 68.8
* O=C(CCCCCCNC(=O)C(O)(O)C(F)(F)F)Nc1ncc(-c2ccccc2)s1 | -25
* CC(=O)OC(c1ccccc1)C1CCOC1=O (centres undefined) | 80.8
* O=C(CCn1cc[n+](CC(=O)c2ccc(-c3ccccc3)cc2)c1)Nc1cccc2cccnc12 | -16.8
* O=C1Nc2ccccc2/C1=C/c1cccn1CCCCn1c2ccccc2c(=O)c2ccccc21 | 51

Query compound follows.
Task: growth lookup needed for CC(C)(C)n1cc(-c2ccnc(NCCCNS(=O)(=O)c3ccc(C(F)(F)F)cc3)c2)c(-c2cccc(O)c2)n1 , thanks.
Result: 11.8

* * *

- System: MDA-MB-468 breast
- method: NCI-60 one-dose screen, 48 h
- condition-parameters: 10 µM unless noted
The panel holds about 83,000 compounds, 20% with a hit somewhere; the sample as a whole holds those more often. The source made the active and inactive calls. The calls were made as follows: active = growth percent below 10; inactive = the rest.
Outcome field: choose from active, inactive

Reference set, count: 2
• Cc1cc2c(cc1C)N(C(=O)CCl)CC(=O)N2 = active
• COc1ccc(C(=O)/C=C/c2c(OC)cc(OC)cc2OC)c(OC)c1 = active

Task: Answer briefly: the call reported for O=C(Cn1c(-c2ccc([N+](=O)[O-])cc2)nc2ccccc21)NNC(=O)c1cccnc1 in this assay.
Result: active

Task: Answer briefly: the call reported for COC(=O)c1nc(-c2ccc(C)cc2)oc1N1CCOCC1 in this assay.
Result: inactive

Task: Answer briefly: the call reported for CN(Cc1cnc2nc(N)nc(N)c2n1)c1ccc(C(=O)N[C@@H](CCc2nn[nH]n2)c2nn[nH]n2)cc1 in this assay.
Result: inactive

* * *

- Tested on: MDA-MB-468 breast
- method: NCI-60 one-dose screen, 48 h
- condition-parameters: 10 µM unless noted
About 83,000 compounds went through this panel and 20% of them were active in at least one assay; those are over-represented in the sample as a whole. Active and inactive are the calls of the source. How the source made its calls: active means growth percent below 10; inactive means the rest.
Outcome field: choose from Y (active), N (inactive)

- Nc1c(C(=O)Nc2ccccc2Cl)sc2nc3c(cc12)C(=O)CCC3: N

Task: Answer briefly: the call reported for COC(=O)/C=C1/SC(=Nc2ccc(C(F)(F)F)cc2)N(CCc2c[nH]c3ccc(O)cc23)C1=O in this assay.
Result: Y

Task: Answer briefly: the call reported for Cc1c(Cl)cccc1NC(=O)c1sc2nc3c(cc2c1N)C(=O)CCC3 in this assay.
Result: N

Task: Answer briefly: the call reported for Cn1c(=O)c2c(nc(Cl)n2CCl)n(C)c1=O in this assay.
Result: N

Task: Answer briefly: the call reported for COc1cc(/C=C2\Oc3cc(OCC(=O)c4ccccc4)ccc3C2=O)cc(OC)c1OC in this assay.
Result: N

Task: Answer briefly: the call reported for COc1ccc(NC(=O)c2sc3nc(-c4cnccn4)cc(-c4cccs4)c3c2N)cc1 in this assay.
Result: N

Task: Answer briefly: the call reported for COc1ccc2[nH]c(=O)c(CNc3ccc(Nc4nccc(-c5ccc(Cl)cc5)n4)cc3)cc2c1 in this assay.
Result: N

Task: Answer briefly: the call reported for C#CCn1cnc2c(Nc3cccc(NC(=O)CCl)c3)ncnc21 in this assay.
Result: N

* * *

- Tested on: MDA-MB-468 breast
- method: NCI-60 one-dose screen, 48 h
- condition-parameters: 10 µM unless noted
Compounds without any hit were thinned out: in the full panel of roughly 83,000, 20% have a hit. Calls of active or inactive are those of the source. Rule for the calls: active = growth percent below 10; inactive = the rest.
Outcome field: choose from label 1 (active), label 0 (inactive)

Reference set, count: 5
* O=C(O)c1cn(C2CC2)c2cc(N3CCN(C(=O)Nc4nc(-c5ccccc5)cs4)CC3)c(F)cc2c1=O | label 0
* O=C/C=C/c1ccc([N+](=O)[O-])cc1 | label 0
* COc1cc2cc(C(=O)Nc3ccccc3)c(N)nc2cc1OC | label 1
* C/C=C/C(N)=O | label 0
* Cc1c(Cn2c(C)nc3c(C(=O)O)cc(N4CCOCC4)cc32)cccc1C(F)(F)F | label 0

Now turn to the next compound.
Task: Answer briefly: the call reported for O=C1c2ccccc2C(=O)N1c1ccccc1 in this assay.
Result: label 0

* * *

- System: MDA-MB-468 breast
- method: NCI-60 one-dose screen, 48 h (100 = growth as untreated, 0 = no growth, -100 = all killed)
- condition-parameters: 10 µM unless noted
About 83,000 compounds went through this panel and 20% of them were active in at least one assay; those are over-represented in the sample as a whole.
metric: growth (%)
Report the figure in % without appending any unit label.

• CC1=CC(C)(C)NC(=S)N1c1ccc(S(=O)(=O)O)c2cccc(S(=O)(=O)O)c12 = 107
• COC(=O)/C=C1/SC(=Nc2ccc([N+](=O)[O-])cc2)N(CCc2c[nH]c3ccccc23)C1=O = 86
• Nc1nsc(C(=O)c2ccc(O)cc2)n1 = 105
• COc1ccc(C(=O)N2NC(=O)/C(=C/c3ccc(F)cc3)N=C2c2ccccc2)cc1 = 90.6

Query compound follows.
Task: growth lookup needed for CCOC(=O)C(=O)CC(=O)N1C(=S)NC(=O)C1CC(C)C (stereo not given) , thanks.
Result: 85.1

* * *

- System: MDA-MB-468 breast
- method: NCI-60 one-dose screen, 48 h (100 = growth as untreated, 0 = no growth, -100 = all killed)
- condition-parameters: 10 µM unless noted
Compounds without any hit were thinned out: in the full panel of roughly 83,000, 20% have a hit.
metric: growth (%)
Report the figure in % without appending any unit label.

• CC(O)c1cc[cH-]c1.[Fe+2].c1cc[cH-]c1 (stereo unspecified) = 94.5
• CN1CCN(C(=O)c2ccc(NC(=O)Nc3ccc(-c4nc(N5CCOCC5)c5cccn5n4)cc3)cc2)CC1 = -60.7
• O=[N+]([O-])c1cc(CCl)ccc1OCCBr = 92.4
• O/N=C/c1ccc(O)cc1O = 121
• COc1ccc(C(=O)c2cc(C(=O)/C=C/c3c(Cl)cccc3Cl)c3cc(C)ccn23)cc1 = 96.1

Query compound follows.
Task: growth lookup needed for O=C1c2ccccc2OC=C(c2ccccc2)N1CCCCN1CCCCC1 , thanks.
Result: -6.27

* * *

- System: MDA-MB-468 breast
- method: NCI-60 one-dose screen, 48 h (100 = growth as untreated, 0 = no growth, -100 = all killed)
- condition-parameters: 10 µM unless noted
- Method: Growth inhibition of the MDA-MB-468 human Breast tumor cell line is measured as a screen for anti-cancer activity. Cells are grown in 96 well plates and exposed to the test compound for 48 hours. Compounds are tested at a single concentration, which is 10^-5 M for most compounds. The reported endpoint is percent growth (GI% or GIPRCNT), where numbers from 0 - 100% represent growth inhibition, and numbers from -100% - 0 represent cell death. […]
About 83,000 compounds went through this panel and 20% of them were active in at least one assay; those are over-represented in the sample as a whole.
Reported growth values follow for various compounds
Report the figure in % without appending any unit label.

Consider the worked cases shown below.
* C=C1C(=O)O[C@H]2[C@H]1CC/C(CNS(=O)(=O)c1cccc3ccccc13)=C\CC[C@@]1(C)O[C@@H]21 | 1.44
* O=C(O)C(CCc1ccccc1)NCc1ccccc1 (stereo unspecified) | 108
* Nc1nc(-c2cccc([N+](=O)[O-])c2)c(N=Nc2ccc(Br)cc2)s1 | -45.7

Task: growth of CC(C)C(=O)Nc1nc2c(s1)CCCc1ccn(S(=O)(=O)c3ccccc3)c1-2 on MDA-MB-468 breast?
Result: 95.3

Task: growth of c1ccc(Oc2c3ccccc3nc3ccccc23)cc1 on MDA-MB-468 breast?
Result: -4.55

Task: growth of O=C(Nc1cc(Cl)cc(Cl)c1)Nc1ccc2oc(=O)ccc2c1 on MDA-MB-468 breast?
Result: 15.7

Task: growth of O=C(CN1C(=O)CCC1=O)Nc1ncc(Cc2ccc(F)cc2)s1 on MDA-MB-468 breast?
Result: 109

Task: growth of O=C1c2ccccc2C(=O)c2c([N+](=O)[O-])ccc(Cl)c21 on MDA-MB-468 breast?
Result: -5.53

Task: growth of Cc1ccc(S(=O)(=O)N/N=C2\CC3CCC2C3)cc1 (stereo unspecified) on MDA-MB-468 breast?
Result: 110

Task: growth of Oc1ccc(O)c(-c2ccccc2)c1 on MDA-MB-468 breast?
Result: 33.2

Task: growth of CNC(=O)c1cc(Oc2ccc3c(c2)sc2nc(-c4cc(C(F)(F)F)cc(C(F)(F)F)c4)cn23)ccn1 on MDA-MB-468 breast?
Result: 4.64
